The values you see were collected from patent US8119681B2.

target: human GR (Homo sapiens); experiment: Transrepression Assay (GITAR), TNFα-β-lactamase reporter gene in U937 cells; type: cell-based; design: U937 cells contain an endogenous glucocorticoid receptor (GR); endogenous in cells; host or cells: U937 cells stably transfected with the TNF-α promoter/β-lactamase reporter only; details: Table 2; separation of GITAR Emax over GRAMMER Emax
Sequence (P04150 whole entry): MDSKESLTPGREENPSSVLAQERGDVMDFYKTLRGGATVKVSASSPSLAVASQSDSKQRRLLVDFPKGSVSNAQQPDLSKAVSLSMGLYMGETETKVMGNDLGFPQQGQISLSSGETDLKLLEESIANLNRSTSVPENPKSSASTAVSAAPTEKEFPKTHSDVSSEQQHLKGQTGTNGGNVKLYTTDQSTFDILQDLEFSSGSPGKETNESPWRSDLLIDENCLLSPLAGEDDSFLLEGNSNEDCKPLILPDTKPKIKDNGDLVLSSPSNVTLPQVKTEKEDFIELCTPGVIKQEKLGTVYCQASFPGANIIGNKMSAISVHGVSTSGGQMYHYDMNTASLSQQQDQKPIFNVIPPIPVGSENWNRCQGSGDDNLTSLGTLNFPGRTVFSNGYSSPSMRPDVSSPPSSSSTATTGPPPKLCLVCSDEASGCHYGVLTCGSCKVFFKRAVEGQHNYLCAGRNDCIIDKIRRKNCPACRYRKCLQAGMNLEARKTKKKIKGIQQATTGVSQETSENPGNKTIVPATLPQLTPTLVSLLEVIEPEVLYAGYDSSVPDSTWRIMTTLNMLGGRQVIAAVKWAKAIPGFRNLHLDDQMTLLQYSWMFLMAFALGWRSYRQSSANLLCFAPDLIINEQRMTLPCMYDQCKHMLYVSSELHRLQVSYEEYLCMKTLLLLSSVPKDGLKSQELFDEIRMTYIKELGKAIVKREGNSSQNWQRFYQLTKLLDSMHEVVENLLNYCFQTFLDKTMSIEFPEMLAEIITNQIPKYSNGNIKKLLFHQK
QUANTITY NAME: GITAR > GRAMM % SEP (%)

I: C[C@]12Cc3cnn(-c4ccc(F)cc4)c3C=C1CCC[C@@H]2[C@@H](O)Cc1ccccc1 [Example 22 WO 03/086294 A2, reference compound]
II: C[C@]12Cc3cnn(-c4ccc(F)cc4)c3C=C1CCC[C@@]2(O)CCc1ccccc1Cl [Example 41 WO 2004/075840 A2, reference compound]
III: COc1ccccc1CC[C@]1(O)CCC2=Cc3c(cnn3-c3ccc(F)cc3)C[C@@]21C [Example 58 WO 2004/075840 A2, reference compound]
Exam item: Quick favor: sort the compounds up above by GITAR > GRAMM % SEP, largest first. Form field (ranking): labels in requested order.
Marked response: III, II, I
